Give measured shrunken log2 fold change for each item. Keep answers brief.
System: Escherichia coli TOP10
Assay info: shrunken log2 fold change of peptide-encoding DNA abundance (4.5 h post-induction vs induction); higher = less antimicrobial activity (less host growth inhibition)
Test conditions: time post-induction: 4.5 h; library: site-saturation at positions 5, 18, 19, 20

// lookup shrunken log2 fold change | system=Escherichia coli TOP10 | key= RRIRTRPPRLPRPRPRPFFWPRP
0.276

Under Escherichia coli TOP10: shrunken log2 fold change value of RRIRARPPRLPRPRPRPGPSPRP ?
0.6

Which shrunken log2 fold change is reported with Escherichia coli TOP10 for this entry: RRIRHRPPRLPRPRPRPYYEPRP ?
0.0317

Please provide the recorded shrunken log2 fold change for RRIRARPPRLPRPRPRPIIDPRP , tested on Escherichia coli TOP10.
0.216

Please provide the recorded shrunken log2 fold change for RRIRVRPPRLPRPRPRPTQAPRP , tested on Escherichia coli TOP10.
0.55

Hello, I am looking for reported shrunken log2 fold change with Escherichia coli TOP10 for RRIRNRPPRLPRPRPRPCQMPRP . Could you help?
-0.0139

Give the reported shrunken log2 fold change for RRIRQRPPRLPRPRPRPWVTPRP (system: Escherichia coli TOP10).
-0.219

Observed shrunken log2 fold change on Escherichia coli TOP10 for RRIRGRPPRLPRPRPRPSRDPRP , please.
0.921

###

System: Escherichia coli TOP10
Assay info: shrunken log2 fold change of peptide-encoding DNA abundance (4.5 h post-induction vs induction); higher = less antimicrobial activity (less host growth inhibition)
Test conditions: time post-induction: 4.5 h; library: site-saturation at positions 5, 18, 19, 20
Answer each item with its documented shrunken log2 fold change.

Look at this sequence and give its reported shrunken log2 fold change. RRIRRRPPRLPRPRPRPLRCPRP
0.714

Tell me the measured shrunken log2 fold change of RRIRVRPPRLPRPRPRPSDFPRP , please.
-0.394

Which shrunken log2 fold change is listed for RRIRERPPRLPRPRPRPLPCPRP ?
-0.315

Which shrunken log2 fold change value belongs to RRIRRRPPRLPRPRPRPVVVPRP ?
0.186

State the recorded shrunken log2 fold change for this entry: RRIRTRPPRLPRPRPRPSHEPRP
-0.299

Bench note: what shrunken log2 fold change did RRIRMRPPRLPRPRPRPHNRPRP show?
-0.172

For RRIRERPPRLPRPRPRPYQHPRP , what is its reported shrunken log2 fold change?
-0.106

I am curious: what shrunken log2 fold change value has been reported for RRIRMRPPRLPRPRPRPTHDPRP ?
0.81

# shrunken log2 fold change lookup, item RRIRLRPPRLPRPRPRPWLRPRP
-0.0452

Could you share which shrunken log2 fold change value was measured for RRIRNRPPRLPRPRPRPRHEPRP ?
-0.0217

Any idea what its shrunken log2 fold change is? The sequence is RRIRFRPPRLPRPRPRPQVVPRP
-0.152

Give the measured shrunken log2 fold change of RRIRCRPPRLPRPRPRPAWSPRP .
0.15

Endpoint output: shrunken log2 fold change of RRIRGRPPRLPRPRPRPWITPRP . Value?
-0.204

Given the entry RRIRYRPPRLPRPRPRPYFIPRP , report its measured shrunken log2 fold change.
-0.629

So what's the measured shrunken log2 fold change for this one? RRIRGRPPRLPRPRPRPDDQPRP
1.92

Entry RRIRFRPPRLPRPRPRPLNFPRP : reported shrunken log2 fold change = ?
-0.452

Quick check: shrunken log2 fold change of RRIRTRPPRLPRPRPRPVRHPRP ?
-0.041

Entry under review: RRIRWRPPRLPRPRPRPRMRPRP . Reported shrunken log2 fold change?
1.03

Record request: shrunken log2 fold change value, item RRIRFRPPRLPRPRPRPYYAPRP
-1.21

Given RRIRLRPPRLPRPRPRPRVAPRP , state its recorded shrunken log2 fold change.
0.272

Using the record for RRIRWRPPRLPRPRPRPRHLPRP , report its shrunken log2 fold change.
0.11

Need shrunken log2 fold change of RRIRWRPPRLPRPRPRPPDAPRP , thanks.
0.5

Please report the recorded shrunken log2 fold change for RRIRERPPRLPRPRPRPPIRPRP .
-0.0192

# lookup: shrunken log2 fold change of RRIRDRPPRLPRPRPRPMADPRP
0.523

Item RRIRFRPPRLPRPRPRPILIPRP has what recorded shrunken log2 fold change?
-0.194

Would you mind telling me what shrunken log2 fold change value was observed for RRIRCRPPRLPRPRPRPMSTPRP ?
-0.0888

I would be grateful if you could share the reported shrunken log2 fold change for RRIRLRPPRLPRPRPRPFPWPRP .
-0.0836

Given the entry RRIRKRPPRLPRPRPRPLLEPRP , report its measured shrunken log2 fold change.
0.241

Name the reported shrunken log2 fold change value associated with the sequence RRIRDRPPRLPRPRPRPSQGPRP
-0.0558

Dear colleague, I am looking for the recorded shrunken log2 fold change of the following sequence: RRIRCRPPRLPRPRPRPTKIPRP
0.0473

What shrunken log2 fold change value was documented for this sequence, RRIRPRPPRLPRPRPRPTVPPRP ?
-0.0252

shrunken log2 fold change for RRIRWRPPRLPRPRPRPEYHPRP ?
0.0167

Entry RRIRGRPPRLPRPRPRPMHAPRP has what shrunken log2 fold change?
1.66

Recorded shrunken log2 fold change of RRIRHRPPRLPRPRPRPDFQPRP , please.
-0.00193

Consider the sequence RRIRRRPPRLPRPRPRPYLSPRP and give its measured shrunken log2 fold change.
-0.288

Using the record for RRIRRRPPRLPRPRPRPGHQPRP , report its shrunken log2 fold change.
0.342

Find the recorded shrunken log2 fold change belonging to RRIRSRPPRLPRPRPRPQYAPRP and report it.
-0.282

Entry under review: RRIRYRPPRLPRPRPRPMHDPRP . Reported shrunken log2 fold change?
-0.598

I have this sequence here, RRIRLRPPRLPRPRPRPETRPRP , and I need its recorded shrunken log2 fold change.
0.0057

shrunken log2 fold change for RRIRSRPPRLPRPRPRPPIFPRP ?
-0.576

Entry under review: RRIRMRPPRLPRPRPRPHHTPRP . Reported shrunken log2 fold change?
-0.263

What measured shrunken log2 fold change goes with RRIRSRPPRLPRPRPRPGGWPRP ?
0.705

// lookup shrunken log2 fold change for RRIRPRPPRLPRPRPRPIPWPRP
0.00327

// query shrunken log2 fold change value for entry RRIRRRPPRLPRPRPRPHMVPRP
-0.355

Sample RRIRGRPPRLPRPRPRPTYPPRP — what was its shrunken log2 fold change?
0.0703

Which measured shrunken log2 fold change value corresponds to RRIRNRPPRLPRPRPRPLHHPRP ?
-0.39

Please report the recorded shrunken log2 fold change for RRIRIRPPRLPRPRPRPTLNPRP .
-0.181

Please give the measured shrunken log2 fold change for this sequence: RRIRRRPPRLPRPRPRPEIHPRP
-0.265

Would you mind telling me what shrunken log2 fold change value was observed for RRIRSRPPRLPRPRPRPDCQPRP ?
0.117

Please give the measured shrunken log2 fold change for this sequence: RRIRCRPPRLPRPRPRPRLLPRP
0.159

Would you kindly share the measured shrunken log2 fold change for RRIRIRPPRLPRPRPRPDVGPRP ?
-0.284

So what's the measured shrunken log2 fold change for this one? RRIRQRPPRLPRPRPRPGARPRP
0.451

Sample RRIRTRPPRLPRPRPRPKKWPRP — what was its shrunken log2 fold change?
-0.0616

// returns reported shrunken log2 fold change for input RRIRFRPPRLPRPRPRPMDPPRP
0.0482

Item under review: RRIRQRPPRLPRPRPRPMGQPRP . Reported shrunken log2 fold change?
0.0628

Would you mind telling me what shrunken log2 fold change value was observed for RRIRARPPRLPRPRPRPLCSPRP ?
0.197

For the sequence RRIRHRPPRLPRPRPRPEMMPRP , what shrunken log2 fold change is on record?
-0.0229

// lookup shrunken log2 fold change for RRIRWRPPRLPRPRPRPIHSPRP
-0.0401

Entry RRIRVRPPRLPRPRPRPAVQPRP : reported shrunken log2 fold change = ?
-0.121

Requested read-out: shrunken log2 fold change. Entry: RRIRWRPPRLPRPRPRPIAEPRP
0.00894

Query (sequence): RRIRQRPPRLPRPRPRPRTMPRP ; field requested: shrunken log2 fold change
-0.232

Fill in: shrunken log2 fold change of RRIRNRPPRLPRPRPRPWFPPRP is ___
-0.223

# query: shrunken log2 fold change of entry RRIRVRPPRLPRPRPRPDMDPRP
-0.154

###

System: Escherichia coli TOP10
Assay info: shrunken log2 fold change of peptide-encoding DNA abundance (4.5 h post-induction vs induction); higher = less antimicrobial activity (less host growth inhibition)
Test conditions: time post-induction: 4.5 h; library: site-saturation at positions 5, 18, 19, 20
Value kind: shrunken log2 fold change
Lab note: record just the number, no unit beside it.

Enter reported shrunken log2 fold change observed with Escherichia coli TOP10 for RRIRVRPPRLPRPRPRPDNVPRP
0.171

Tell me reported shrunken log2 fold change for RRIRCRPPRLPRPRPRPLTRPRP , tested with Escherichia coli TOP10.
0.258

shrunken log2 fold change of RRIRNRPPRLPRPRPRPVHAPRP on Escherichia coli TOP10?
0.0862

Request - read-out shrunken log2 fold change | tested on Escherichia coli TOP10 | sequence RRIRHRPPRLPRPRPRPDLQPRP
-0.15

Param readout = shrunken log2 fold change; param system = Escherichia coli TOP10; param query = RRIRYRPPRLPRPRPRPVGYPRP ; response: value
-0.152

# query: shrunken log2 fold change | item RRIRQRPPRLPRPRPRPWVNPRP | system: Escherichia coli TOP10
-0.215

Please tell me: shrunken log2 fold change of RRIRDRPPRLPRPRPRPKRLPRP , system Escherichia coli TOP10?
-0.0451

Observed shrunken log2 fold change on Escherichia coli TOP10 for RRIRTRPPRLPRPRPRPKGFPRP , please.
0.0975

Short answer please: shrunken log2 fold change, Escherichia coli TOP10, entry RRIRFRPPRLPRPRPRPDRPPRP
0.033

Identify the measured shrunken log2 fold change of RRIRSRPPRLPRPRPRPTIQPRP for Escherichia coli TOP10.
-0.305

Kindly state the measured shrunken log2 fold change obtained for RRIRTRPPRLPRPRPRPGYAPRP with Escherichia coli TOP10.
0.111

# returns recorded shrunken log2 fold change (system: Escherichia coli TOP10) for RRIRNRPPRLPRPRPRPCNAPRP;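 note: peptides expressed intracellularly from a pBAD plasmid library in pooled LB shake-flask culture, induced with 0.3% L-arabinose, DNA abundance read by NGS, three biological replicates, DESeq2 with apeglm shrinkage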
-0.0514

What is its shrunken log2 fold change for Escherichia coli TOP10? Entry: RRIRERPPRLPRPRPRPFNTPRP
-0.124

Fill in the recorded shrunken log2 fold change for this sequence, with Escherichia coli TOP10 as test system: RRIRYRPPRLPRPRPRPNNMPRP
-0.633

Field: shrunken log2 fold change (Escherichia coli TOP10). Entry: RRIRARPPRLPRPRPRPIGQPRP
0.34
